# Test system: anesthetized guinea-pig
# assay.info: Inotropic effect and lethal dose, slow intravenous infusion in anesthetized guinea-pig
# Assay type: in vivo
# test.parameters: Cavia porcellus, iv, 1.5 h; slow i.v. infusion over 90 minutes, anesthetized guinea-pig; maximum increase in contractile force; read-out: Emax % increase in +dP/dTmax
Counter-ions that a name gives are not always drawn.
Please enter class 1 where Emax is greater than or equal to 200%, and class 0 where it is lower.

q: Does the molecule CC12CCC3C(CC(=O)C4CC(=NOC5CCNC5)CCC43C)C1CCC2=O (mixture of isomers) [I-ae, hydrochloride] have recorded Emax that is 200% or more?
a: class 0

q: Does the molecule C[C@]12CCC(=NOCCN)CC1C(=O)C[C@@H]1[C@@H]2CC[C@]2(C)C(=O)CC[C@@H]12.Cl (mixture of isomers) [compd 22b, hydrochloride, reference compound] have recorded Emax that is 200% or more?
a: class 0

q: Does the molecule C[C@]12CC[C@H]3[C@@H](C/C(=N\O)[C@@]4(O)CC(=NO[C@@H]5CCNC5)CC[C@]34C)[C@@H]1CCC2=O (mixture of isomers) [I-bp, hydrochloride] have recorded Emax that is 200% or more?
a: class 1

q: Does the molecule C#CC1CC2C3CCC(=O)C3(C)CCC2C2(C)CCC(=NOC3CCNC3)CC12 (mixture of isomers) [I-bb, hydrochloride] have recorded Emax that is 200% or more?
a: class 0

q: Does the molecule CC1CC2CC(=NOC3CCNC3)CCC2(C)C2CCC3(C)C(=O)CCC3C12 (mixture of isomers) [I-cl, hydrochloride] have recorded Emax that is 200% or more?
a: class 0

q: Does the molecule CC12CCC3C(CC(=NO)C4CC(=NOC5CCNC5)CCC43C)C1CCC2=O (mixture of isomers) [I-av, hydrochloride] have recorded Emax that is 200% or more?
a: class 0

* * *

# System: anesthetized guinea-pig
# assay.info: Inotropic effect and lethal dose, slow intravenous infusion in anesthetized guinea-pig
# Format: in vivo
# Set-up: unit not given here
# test.parameters: slow i.v. infusion over 90 minutes; maximum dose infused in the survived animals
Structures can show the parent of a compound that is named as a salt.
assay.endpoint: Maximum dose infused
The answer should be written as a number, with no unit following it.

q: Provide only the value of recorded Maximum dose infused for CC1CC2CC(=NOC3CCNC3)CCC2(C)C2CCC3(C)C(=O)CCC3C12 (mixture of isomers) [I-cl, hydrochloride]
a: 6.4

q: Provide only the value of recorded Maximum dose infused for CC12CCC3C(CC(O)C4CC(=NOC5CCNC5)CCC43C)C1CCC2=O (single isomer, unassigned) [I-dp, hydrochloride]
a: 148

q: Provide only the value of recorded Maximum dose infused for C[C@]12CCC(=NO[C@@H]3CCNC3)C[C@@H]1[C@@H](C(N)=O)C[C@@H]1[C@@H]2CC[C@]2(C)C(=O)CC[C@@H]12.Cl [I-at]
a: 25.0

q: Provide only the value of recorded Maximum dose infused for CC12CCC3C(CC(=O)C4CC(=NOC5CCNC5)CCC43C)C1CCC2=O (mixture of isomers) [I-ae, hydrochloride]
a: 6.4

* * *

# assayed.target: Dog Kidney Na+, K+-ATPase (Canis lupus familiaris)
# assay.info: Inhibition of the enzymatic activity of purified Na+,K+-ATPase (hydrolysis of 32P-ATP)
# Format: biochemical
# test.parameters: Na+, K+-ATPase Inhibition IC50, dog kidney enzyme; hydrolysis of 32P-ATP in presence and absence of compound
assay.endpoint: pIC50
Worth noting: pIC50 values are minus log10 of concentrations stated in mol/L.

q: Provide only the value of recorded pIC50 for C[C@]12CC/C(=N\O[C@H]3CCNC3)CC1[C@@H](CO)C(=O)[C@@H]1[C@@H]2CC[C@]2(C)C(=O)CC[C@@H]12 (some centres unmarked) [I-dj]
a: 7.44

q: Provide only the value of recorded pIC50 for CC12CCC3C(C(=O)C(CO)C4CC(=NOC5CCNC5)CCC43C)C1CCC2=O (mixture of isomers) [I-cs]
a: 7.89

Hello, the source for this data is patent US8536160B2, in case you need it.
